- experimental-details: xn = mol fraction of the nth substance listed
- reported-conditions: 303.15 K; 100 kPa; Liquid; Falling or rolling sphere viscometry; x1 = 0.25
± gives the expanded uncertainty stated by the source.
So I've got a bunch of compounds here, and I need their viscosity values.

input: I'd like to know its viscosity. The compound in question is CCCC[N+](CCCC)(CCCC)Cc1ccccc1.[Cl-] [benzyltributylammonium chloride] + OCC(O)CO
output: 1709.2 ± 200 mPa·s

input: Another compound: CCCC[N+](CCCC)(CCCC)Cc1ccccc1.[Cl-] [benzyltributylammonium chloride] + OCCOCCOCCO
output: 188.5 ± 8.6 mPa·s

input: Same lookup for C[N+](C)(C)Cc1ccccc1.[Cl-] [trimethylbenzylammonium chloride] + OCC(O)CO , please.
output: 501.5 ± 39 mPa·s

input: And for C[N+](C)(C)Cc1ccccc1.[Cl-] [trimethylbenzylammonium chloride] + OCCOCCOCCO ?
output: 214.3 ± 11 mPa·s

* * *

- experimental-details: refractive index (Na D-line) (dimensionless); xn = mol fraction of the nth substance listed
- reported-conditions: 288.15 K; 100 kPa; Liquid; Standard Abbe refractometry; x1 = 0.25
So I've got a bunch of molecules here, and I need their refractive index values.
Give only the figure.

input: I have this molecule here, C[N+](C)(C)Cc1ccccc1.[Cl-] [trimethylbenzylammonium chloride] + OCCOCCOCCO , and I need its recorded refractive index.
output: 1.4908

input: Now try CCCC[N+](CCCC)(CCCC)Cc1ccccc1.[Cl-] [benzyltributylammonium chloride] + OCCOCCO .
output: 1.4945

input: Same question for C[N+](C)(C)Cc1ccccc1.[Cl-] [trimethylbenzylammonium chloride] + OCCO please.
output: 1.498

input: Likewise for C[N+](C)(C)Cc1ccccc1.[Cl-] [trimethylbenzylammonium chloride] + OCC(O)CO ?
output: 1.5114

input: What about CCCC[N+](CCCC)(CCCC)Cc1ccccc1.[Cl-] [benzyltributylammonium chloride] + OCCO ?
output: 1.4979

input: Again, but for CCCC[N+](CCCC)(CCCC)Cc1ccccc1.[Cl-] [benzyltributylammonium chloride] + OCC(O)CO
output: 1.5079

input: // next record C[N+](C)(C)Cc1ccccc1.[Cl-] [trimethylbenzylammonium chloride] + OCCOCCO
output: 1.494

input: Also, CCCC[N+](CCCC)(CCCC)Cc1ccccc1.[Cl-] [benzyltributylammonium chloride] + OCCOCCOCCO please.
output: 1.4921

* * *

- experimental-details: xn = mol fraction of the nth substance listed
- reported-conditions: 288.15 K; 100 kPa; Liquid; Vibrating tube method; x1 = 0.25
property-name: mass density (kg/m3)
Express the result in kg/m3 but write the number alone.

input: Param item = CCCC[N+](CCCC)(CCCC)Cc1ccccc1.[Cl-] [benzyltributylammonium chloride] + OCC(O)CO ; retrieve measured mass density.
output: 1108.9

input: Field entry: C[N+](C)(C)Cc1ccccc1.[Cl-] [trimethylbenzylammonium chloride] + OCC(O)CO
output: 1187.92

input: Now try C[N+](C)(C)Cc1ccccc1.[Cl-] [trimethylbenzylammonium chloride] + OCCOCCOCCO .
output: 1124.08

input: Again, but for CCCC[N+](CCCC)(CCCC)Cc1ccccc1.[Cl-] [benzyltributylammonium chloride] + OCCO
output: 1042.15

input: Same again, this time with C[N+](C)(C)Cc1ccccc1.[Cl-] [trimethylbenzylammonium chloride] + OCCOCCO
output: 1116.91

input: What about this molecule? C[N+](C)(C)Cc1ccccc1.[Cl-] [trimethylbenzylammonium chloride] + OCCO
output: 1107

input: Query CCCC[N+](CCCC)(CCCC)Cc1ccccc1.[Cl-] [benzyltributylammonium chloride] + OCCOCCO next
output: 1060.76

input: Input CCCC[N+](CCCC)(CCCC)Cc1ccccc1.[Cl-] [benzyltributylammonium chloride] + OCCOCCOCCO
output: 1074.64

* * *

For each record, write down the corresponding refractive index.
- experimental-details: refractive index (Na D-line) (dimensionless); xn = mol fraction of the nth substance listed
- reported-conditions: 308.15 K; 100 kPa; Liquid; Standard Abbe refractometry; x1 = 0.25
Form rule: numeric answer, no unit written next to it.

input: Returns the measured refractive index for the input compound. Input: CCCC[N+](CCCC)(CCCC)Cc1ccccc1.[Cl-] [benzyltributylammonium chloride] + OCCOCCOCCO
output: 1.4857

input: Then what about the compound CCCC[N+](CCCC)(CCCC)Cc1ccccc1.[Cl-] [benzyltributylammonium chloride] + OCC(O)CO ?
output: 1.5021

input: Same question, C[N+](C)(C)Cc1ccccc1.[Cl-] [trimethylbenzylammonium chloride] + OCCO this time
output: 1.4921

input: Follow-up item: CCCC[N+](CCCC)(CCCC)Cc1ccccc1.[Cl-] [benzyltributylammonium chloride] + OCCO
output: 1.4917

* * *

Give measured refractive index for each item. Keep answers brief.
- experimental-details: refractive index (Na D-line) (dimensionless); xn = mol fraction of the nth substance listed
- reported-conditions: 313.15 K; 100 kPa; Liquid; Standard Abbe refractometry; x1 = 0.25
I only need the number, thanks.

input: GET /values?readout=refractive index&item= C[N+](C)(C)Cc1ccccc1.[Cl-] [trimethylbenzylammonium chloride] + OCCOCCOCCO
output: 1.4836

input: // next record C[N+](C)(C)Cc1ccccc1.[Cl-] [trimethylbenzylammonium chloride] + OCCO
output: 1.4907

input: Check CCCC[N+](CCCC)(CCCC)Cc1ccccc1.[Cl-] [benzyltributylammonium chloride] + OCCO too.
output: 1.4901

input: Try this compound next: C[N+](C)(C)Cc1ccccc1.[Cl-] [trimethylbenzylammonium chloride] + OCCOCCO
output: 1.4869

* * *

Please go through the items and note down their mass density.
- experimental-details: xn = mol fraction of the nth substance listed
- reported-conditions: 343.15 K; 100 kPa; Liquid; Vibrating tube method; x1 = 0.25
Write the value in kg/m3 as a bare number.

input: Name the reported mass density value associated with the compound C[N+](C)(C)Cc1ccccc1.[Cl-] [trimethylbenzylammonium chloride] + OCCO
output: 1073.83

input: Another compound to look at: CCCC[N+](CCCC)(CCCC)Cc1ccccc1.[Cl-] [benzyltributylammonium chloride] + OCC(O)CO
output: 1074.43

input: Next: CCCC[N+](CCCC)(CCCC)Cc1ccccc1.[Cl-] [benzyltributylammonium chloride] + OCCO
output: 1007.53

input: Repeat with C[N+](C)(C)Cc1ccccc1.[Cl-] [trimethylbenzylammonium chloride] + OCC(O)CO
output: 1155.33

input: Could you do the same for CCCC[N+](CCCC)(CCCC)Cc1ccccc1.[Cl-] [benzyltributylammonium chloride] + OCCOCCOCCO , please?
output: 1038.69

input: And the next one, C[N+](C)(C)Cc1ccccc1.[Cl-] [trimethylbenzylammonium chloride] + OCCOCCO ?
output: 1082.63

input: Next compound: CCCC[N+](CCCC)(CCCC)Cc1ccccc1.[Cl-] [benzyltributylammonium chloride] + OCCOCCO
output: 1026.78

input: Then what about the compound C[N+](C)(C)Cc1ccccc1.[Cl-] [trimethylbenzylammonium chloride] + OCCOCCOCCO ?
output: 1087.29

* * *

- experimental-details: xn = mol fraction of the nth substance listed
- reported-conditions: 313.15 K; 100 kPa; Liquid; Alternating current cell with electrodes; x1 = 0.25
property-name: electrical conductivity (S/m)
Please respond with the number in S/m and leave the unit unwritten.

input: Request the reported electrical conductivity associated with CCCC[N+](CCCC)(CCCC)Cc1ccccc1.[Cl-] [benzyltributylammonium chloride] + OCCOCCOCCO
output: 0.054

input: Do the same for C[N+](C)(C)Cc1ccccc1.[Cl-] [trimethylbenzylammonium chloride] + OCCO please
output: 0.75

input: Try this compound too: CCCC[N+](CCCC)(CCCC)Cc1ccccc1.[Cl-] [benzyltributylammonium chloride] + OCC(O)CO
output: 0.025

input: Further, for CCCC[N+](CCCC)(CCCC)Cc1ccccc1.[Cl-] [benzyltributylammonium chloride] + OCCO ?
output: 0.122

input: Same read-out for CCCC[N+](CCCC)(CCCC)Cc1ccccc1.[Cl-] [benzyltributylammonium chloride] + OCCOCCO ?
output: 0.081

input: Quick one: C[N+](C)(C)Cc1ccccc1.[Cl-] [trimethylbenzylammonium chloride] + OCCOCCOCCO
output: 0.187

input: Repeat for the following compound: C[N+](C)(C)Cc1ccccc1.[Cl-] [trimethylbenzylammonium chloride] + OCCOCCO
output: 0.311

input: Follow-up item: C[N+](C)(C)Cc1ccccc1.[Cl-] [trimethylbenzylammonium chloride] + OCC(O)CO
output: 0.104

* * *

- experimental-details: xn = mol fraction of the nth substance listed
- reported-conditions: 328.15 K; 100 kPa; Liquid; Falling or rolling sphere viscometry; x1 = 0.25
property-name: viscosity (mPa·s)
Numbers only; they are read as mPa·s.

input: Bench note: what viscosity did C[N+](C)(C)Cc1ccccc1.[Cl-] [trimethylbenzylammonium chloride] + OCCO show?
output: 14.3

input: Consider next the molecule CCCC[N+](CCCC)(CCCC)Cc1ccccc1.[Cl-] [benzyltributylammonium chloride] + OCC(O)CO in the same way.
output: 254.6

input: Also, CCCC[N+](CCCC)(CCCC)Cc1ccccc1.[Cl-] [benzyltributylammonium chloride] + OCCOCCOCCO please.
output: 54.4

input: How about C[N+](C)(C)Cc1ccccc1.[Cl-] [trimethylbenzylammonium chloride] + OCC(O)CO ?
output: 95.4
